Target: T1, human GARP-TGF-β1 complex (recombinant complex of human GARP and latent human TGF-β1) (human, UniProt Q14392 20-627; P01137 30-278; P01137 279-390)
T1 construct: also called huGARP-TGF-β1; hGARP-TGF-β1
T1 sequence (Q14392 20-627 limits assumed, chain 1 of 3): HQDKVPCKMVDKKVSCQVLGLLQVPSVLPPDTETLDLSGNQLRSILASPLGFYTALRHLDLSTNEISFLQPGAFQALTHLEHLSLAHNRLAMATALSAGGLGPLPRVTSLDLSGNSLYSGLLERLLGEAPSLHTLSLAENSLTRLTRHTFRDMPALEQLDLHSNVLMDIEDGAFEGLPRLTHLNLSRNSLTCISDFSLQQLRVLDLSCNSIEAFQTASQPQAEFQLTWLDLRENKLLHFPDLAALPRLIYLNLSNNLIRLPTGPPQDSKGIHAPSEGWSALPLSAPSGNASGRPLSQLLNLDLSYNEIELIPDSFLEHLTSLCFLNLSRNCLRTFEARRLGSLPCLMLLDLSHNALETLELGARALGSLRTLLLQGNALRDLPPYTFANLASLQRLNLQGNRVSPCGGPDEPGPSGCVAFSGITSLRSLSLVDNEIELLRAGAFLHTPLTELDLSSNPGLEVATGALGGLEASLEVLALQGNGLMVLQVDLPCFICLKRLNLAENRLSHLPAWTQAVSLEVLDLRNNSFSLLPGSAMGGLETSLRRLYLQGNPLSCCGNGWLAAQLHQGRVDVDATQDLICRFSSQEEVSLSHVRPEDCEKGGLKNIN
T1 sequence (P01137 30-278 limits assumed, chain 2 of 3): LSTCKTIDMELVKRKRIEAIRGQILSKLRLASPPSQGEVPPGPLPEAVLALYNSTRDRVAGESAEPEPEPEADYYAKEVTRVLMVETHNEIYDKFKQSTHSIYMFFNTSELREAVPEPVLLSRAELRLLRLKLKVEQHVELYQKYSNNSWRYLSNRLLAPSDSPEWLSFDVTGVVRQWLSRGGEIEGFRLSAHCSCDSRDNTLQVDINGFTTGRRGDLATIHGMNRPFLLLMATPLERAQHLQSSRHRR
T1 sequence (P01137 279-390 limits assumed, chain 3 of 3): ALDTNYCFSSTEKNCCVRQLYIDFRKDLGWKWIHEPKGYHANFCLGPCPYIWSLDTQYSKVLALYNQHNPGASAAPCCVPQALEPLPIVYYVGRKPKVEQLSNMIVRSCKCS
Test: SPR, Fab in periplasmic extract, off-rate on human GARP-TGF-β1 complex
Description: Masterplates were picked from selection round 2, 3, 4, 5 and 6 (48 clones for each round). Periplasmic extracts were prepared and off-rates were determined by SPR. All clones were DNA-sequenced and amino acid sequences were deduced thereof. The off-rates of these clones were measured as periplasmic extracts on SPR, and compared to the off-rate of Fab 17H5.
Answer each item with its documented koff.
Give the value in s⁻¹ but do not write s⁻¹ after it.

Task: Entry Fab 39B10 (Fab, V domains shown, Germlined Fab with human CH1 and Cκ (pCB13), tested as periplasmic extract) VH: EVQLVQSGAELKKPGASVKVSCKASGYRFTSYYIDWVRQAPGQGLEWMGRIDPEEGGTKYAQKFQGRVTMTADTSTSTAYMELSSLRSEDTAVYYCARNEWETVVVGDLMYEYEYWGQGTLVTVSS VL: DIQMTQSPSSLSASLGDRVTITCQASQSISSYLAWYQQKPGQAPNILIYGASRLKTGVPSRFSGSGSGTDFTLTISGLEAEDFATYYCQQYASVPVTFGQGTKVEIK : reported koff = ?
Output: 0.000236

Task: Now this one: Fab 39A12 (Fab, V domains shown, Germlined Fab from the phage library with human CH1 and Cκ (pCB13), tested as periplasmic extract) VH: EVQLVQPGAEVKKPGASVKVSCKASGYRFTSYYIDWVRQAPGQGLEWMGRIDPEEGGTKYAQKFQGRVTFTADTSTSTVYVELSSLRSEDTAVYYCARNEWETVVVGDLTYEYEYWGQGTLVTVSS VL: DIQMTQSPSSLSASVGDRVTITCQASQSISSYLAWYQQKPGQAPKILIYGASRLKTGVPSRFSGSGSGTDFTLTISSLQAEDFATYYCQQYASVPVTFGQGTKVEIK
Output: 0.000606

Task: What do we get for Fab 38F2 (Fab, V domains shown, Germlined Fab with human CH1 and Cκ (pCB13), tested as periplasmic extract) VH: QVQLVQPGAELKKPGASVKVSCKASGYRFTSYYIDWVRQAPGQGLEWMGRIDPEDAGTKYAQKFQGRVTFTADTSTSTVYVELSSLRSEDTAVYYCARNEWETVVVGDLTYEYEYWGQGTLVTVSS VL: DIQMTQSPSSLSASVGDRVTITCQASQSISSYLAWYQQKPGKAPNLLIYGASRLKTEVPSRFSGSGSGTDFTLISGLEPEDAGTYYCQQYASVPVTFGQGTKVEIK ?
Output: 0.000408

Task: Same lookup for Fab 39A5 (Fab, V domains shown, Germlined Fab with human CH1 and Cκ (pCB13), tested as periplasmic extract) VH: QVQLVQPGAELRNPGASVKVSCKASGYRFTSYYIDWVRQAPGQGLEWMGRIDPEDGGTKYAQKFQGRVTFTRDTSTSTVYMELSSLRSEDTAVYYCARNEWETVVVGDLMYEYEYWGQGTLVT VL: DIQMTQSPSSLSASLGDRVTITCQASQSISSYLAWYQQKPGQAPKLLIYGASRLKTGVPSRFSGSGSGTDFTLTISSLQPEDAATYYCQQYASVPVTFGQGTKVEIK , please.
Output: 0.00019

Task: Now the binder Fab 39B6 (Fab, V domains shown, Germlined Fab with human CH1 and Cκ (pCB13), tested as periplasmic extract) VH: QVQLVQPGAEVRKPGASVKVSCKASGYRFTSYYIDWVRQAPGQGLEWMGRIDPEDGGTKYAQKFQGRVTMTADTSTSTVYVELSSLRSEDTAVYYCARNEWETVVVGDLMYEYEYWGQGTLVTVSS VL: DIQMTQSPSSLSASVGDRVTITCQASQSISSYLAWYQQKPGQAPKILIYGASRLKTGVPSRFSGSGSGTSFTLTISSLEPEDAATYYCQQYASVPVTFGQGTKVEIK
Output: 0.000105
